Test system: Plasmodium falciparum
Experiment: Confirmatory screen in NF54 pLDH assay, in single point, at 2uM, 72h
Assay type: functional, Erythrocyte
Conditions: timepoint 72 hour
The campaign covered roughly 4,800 compounds. About 410 (8.5%) showed an effect of 50% or more. What follows is part of a selection rich in strong results, with near analogues and random picks from the rest.
Cut-off 10% on % Inhibition, inclusive. At or above means Y; below means N.

INSERT INTO assay_data (smiles_input, classification) VALUES
  ('Cn1c(-c2ccc(Cl)c(Cl)c2)c[n+](CC(=O)c2ccc(F)cc2)c1N', 'N'),
  ('Cc1cc(C)n(C(=O)Cn2nc(C(F)F)cc2C)n1', 'Y'),
  ('CCOc1nc(C)nc2cc(-c3ccccc3)n(Cc3ccccc3)c12', 'Y'),
  ('O=c1c2cc(F)c(F)cc2ncn1C[C@@H](O)CC1CCCC1', 'N'),
  ('O=C(Nc1ccc2c(c1)OCO2)c1c(-c2ccc(Cl)cc2)nc2n1CCS2(=O)=O', 'N'),
  ('COc1ccc(CC(=O)NCc2nnc3n2CCC3)cc1', 'N'),
  ('COc1ccc(C(=O)C[n+]2cc(-c3ccc(OC)cc3)n3c2CCCC3)cc1', 'Y'),
  ('FC(F)Oc1ccc(-c2c[n+](-c3cccc(C(F)(F)F)c3)c3n2CCCCC3)cc1', 'Y'),
  ('COc1ccc(C(=O)C[n+]2nc(CNc3ccc(Br)cc3)n3c2CCCCC3)cc1', 'Y'),
  ('CCOc1ccc(CN2CC[C@H](Nc3ncccn3)[C@@H](O)C2)cc1Cl', 'N');
